Test system: VchCAST RNA-guided transposition machinery (E. coli BL21(DE3) host, lacZ target)
Assay: relative integration efficiency (T-RL orientation) vs wild-type transposon end (log2 (normalized fold change)); transposon end mutated: left end; higher = more efficient transposition
recorded.metric: relative integration efficiency (log2)

* AATGTTGTTGATGCAACCATAAAGTGATATTTAATAACTTCGTATAATGTATACTATACGAAGTTATCAACCATATATTGATATCTCACAAAACAACCATAAGTTGATATTTTTGTGAATCGAGTATTTCAGCAAAACTACTGCAGTAAGAA | -3.05
* AATGTTGTTGATGCAACCATAAAGTGATATTTAATAATTATTTATAATCAGCAACTTAAAACACCCCACCAACGCGCGGTCGCGAGACACCCCACCAACGCCTGGTCGCGGGGGTGTCCGATCTGATTTCAGCAAAACTACTGCAGTAAGAA | -5.87
* AATGTTGTTGATGCACCCATAAATTGATAATTAATAATTATTTATAATCAGCAACTTAACCACAAAACACCCATAAATTGATAATTAACAAAAGTTGGTATTCAACTATAAAATGTGAATCGAGTATTTCAGCAAAACTACTGCAGTAAGAA | -2.87
* AATGTTGTTGATGCAACCATAAAGTGATATTTAATAATTATTTATAATCAGCAACTTAACCACAAAACAACCATATATTGATATCTCACAAAACAACACGCCTGGTCGCGGGGGTGTCCGATCTGATTTCAGCAAAACTACTGCAGTAAGAA | -2.49

----------
System: VchCAST RNA-guided transposition machinery (E. coli BL21(DE3) host, lacZ target)
Experiment: relative integration efficiency (T-RL orientation) vs wild-type transposon end (log2 (normalized fold change)); transposon end mutated: right end (5 bp flank + 75 bp right end); higher = more efficient transposition
Label fulfilled when relative integration efficiency (log2) >= -0.7; otherwise not fulfilled.

* ACATTTGTGGATACAACCCTAAAATGATAATTACACCCATAAATTCATCATTATCACACCCAATTTAACTATAACGCTCTGATCATAGTCAGACCAACATTGCTACGACCCGTATTCGCACCGACAC | not fulfilled
* ACATTTGTTGATACAACCATAAAGTGATATTTACAACCATAAAGTGATATTTATCACAACCATAAGTTGATATTTTCTCTGATCATAGTCAGACCAACATTGCTACGACCCGTATTCGCACCGACAC | fulfilled
* ACATTGGTTCATACAACCATAAAATGATAATTACACCCATAAATTCATCATTATCACACCCAATTTAACTATAACGCTCTGATCATAGTCAGACCAACATTGCTACGACCCGTATTCGCACCGACAC | not fulfilled
* ACATTTGTTGATACAACCATAAAACGATAATTACACCCATAAATGGATAATTATCACACCCAATTTAACTATAACGCTCTGATCATAGTCAGACCAACATTGCTACGACCCGTATTCGCACCGACAC | not fulfilled
* ACATTTGTTGATACAACCATAAAATGATAATTACACCCATAAATTGATAATTATCACACCACGCAATTGATATTGCCTCTGATCATAGTCAGACCAACATTGCTACGACCCGTATTCGCACCGACAC | fulfilled

----------
System: VchCAST RNA-guided transposition machinery (E. coli BL21(DE3) host, lacZ target)
Assay: relative integration efficiency (T-LR orientation) vs wild-type transposon end (log2 (normalized fold change)); transposon end mutated: right end (5 bp flank + 75 bp right end); higher = more efficient transposition
recorded.metric: relative integration efficiency (log2)

• ACATTTGTGGATACAACCATAAAACGATAATTACACCCATAAATGGATAATTATCACACCCAATTTAACTATAACGCTCTGATCATAGTCAGACCAACATTGCTACGACCCGTATTCGCACCGACAC = 1.3
• ACATTTGTTGATACAACCATAAAAGGATAATTCACCCATAAATTGATAATTATCACACCCACATTTAACTATAACGCTCTGATCATAGTCAGACCAACATTGCTACGACCCGTATTCGCACCGACAC = 0.902
• ACATTTGTTGATACAACCATTAAATGATAATTCCACCCAGAAATTGATAATTATCACACCCAATTTAACTATAACGCTCTGATCATAGTCAGACCAACATTGCTACGACCCGTATTCGCACCGACAC = -0.278

----------
Test system: VchCAST RNA-guided transposition machinery (E. coli BL21(DE3) host, lacZ target)
Test: relative integration efficiency (T-RL orientation) vs wild-type transposon end (log2 (normalized fold change)); transposon end mutated: right end (5 bp flank + 75 bp right end); higher = more efficient transposition
recorded.metric: relative integration efficiency (log2)

* ACATTTGTTGATACAACCATAAAATGATAATTAATAACACCCATAAATTGATAATTATCACACCCATAAATTGATATTGCCTCTGATCATAGTCAGACCAACATTGCTACGACCCGTATTCGCACCG | -3.16
* ACATTTGTTGATACAACCATAAAATGATAAAAACACCCATAAATTGATAATTATCACACCCATAAATTGATATTGCCTCTGATCATAGTCAGACCAACATTGCTACGACCCGTATTCGCACCGACAC | -0.347
* ACATTTGTTGATACAACCAATAAATGATAAATACACCCATAAATTGATAATGATGACACCGAATTTAACTATAACGCTCTGATCATAGTCAGACCAACATTGCTACGACCCGTATTCGCACCGACAC | -1.58

----------
Test system: VchCAST RNA-guided transposition machinery (E. coli BL21(DE3) host, lacZ target)
Assay: relative integration efficiency (T-RL orientation) vs wild-type transposon end (log2 (normalized fold change)); transposon end mutated: right end (5 bp flank + 75 bp right end); higher = more efficient transposition
recorded.metric: relative integration efficiency (log2)

* ACATTTGTTGATACAACCATATATTGATATCTCCAACCATAAGTTGATATTTTTCACAACCATAAAATGATAATTACTCTGATCATAGTCAGACCAACATTGCTACGACCCGTATTCGCACCGACAC | -0.279
* ACATTTGTTGATACAACCATAAAATGATAATTACACCCATAAATTGATAATTATCAACCCCATAAATTGATATTGCCTCTGATCATAGTCAGACCAACATTGCTACGACCCGTATTCGCACCGACAC | -0.731
* ACATTTGTTGTATGAACCATAAAATGATAATTACACCCATAAATTGATAATTATCACACCCATAAATTGATATTGCCTCTGATCATAGTCAGACCAACATTGCTACGACCCGTATTCGCACCGACAC | -0.782
* ACATTTGTTGATACAACCATAAAGTGATATTTACAACCATAAAATGATAATTATCACAACCATATATTGATATCTCCTCTGATCATAGTCAGACCAACATTGCTACGACCCGTATTCGCACCGACAC | -0.261
* ACATTTGTTGATACAACCATTAAATGATAATTACACCCATAATTTGATAATTATCACACCCAATTTAACTATAACGCTCTGATCATAGTCAGACCAACATTGCTACGACCCGTATTCGCACCGACAC | -0.76
* ACATTTGCTGATACTACCATTTAATGATAATAACACCCCTAAAATGATAATTATCACACCCAATTTAACTATAACGCTCTGATCATAGTCAGACCAACATTGCTACGACCCGTATTCGCACCGACAC | -4.97
* ACATTTGTTGATACAACCATAAGTTGATATTTTCAACCATAAAGTGATATTTATCACACCCATAAATTGATAATTACTCTGATCATAGTCAGACCAACATTGCTACGACCCGTATTCGCACCGACAC | -0.109
* ACATTTGTTGATACAACCATAAAAGGATAATTACACCCATAAATGGATAATTATCACACCCATAAATGGATATTGCCTCTGATCATAGTCAGACCAACATTGCTACGACCCGTATTCGCACCGACAC | -1.1
* ACATTTGTTGAGCACACCATAAAATGATAATTACACCCATAAATTGATAATTATCACACCCATAAATTGATATTGCCTCTGATCATAGTCAGACCAACATTGCTACGACCCGTATTCGCACCGACAC | -0.523
* ACATTTGTTGATACAACCATAAAATGATAATTAATAATTATTTATCACCCATAAATTGATAATTATCACACCCATAAATTGATATTGCCTCTGATCATAGTCAGACCAACATTGCTACGACCCGTAT | -3.21
* ACATTTGTTGATACAAAAATAAAATGATAATTACACCCATAAATTGATAATTATCACACCCATAAATTGATATTGCCTCTGATCATAGTCAGACCAACATTGCTACGACCCGTATTCGCACCGACAC | -0.328
* ACATTTGTTGATACAACCATAAGTTGATATTTTCAACCATATATTGATATCTCTCACAACCATAAAATGATAATTACTCTGATCATAGTCAGACCAACATTGCTACGACCCGTATTCGCACCGACAC | -0.54
* ACATTTGTTGATACAACCATCAAATGATAATTCCACCCATACATTGATAATTATCACACCCAATTTAACTATAACGCTCTGATCATAGTCAGACCAACATTGCTACGACCCGTATTCGCACCGACAC | -3.05
* ACATTTGTTGATACAACCATATATTGATATCTCCAACCATAAGTTGATATTTTTCACAACCATATATTGATATCTCCTCTGATCATAGTCAGACCAACATTGCTACGACCCGTATTCGCACCGACAC | -0.17
* ACATTTGTTGATACAACCATAAAAGGATCATTACCCCCATAAATTGATAATTATCCCACCCCATTTAACTATAACGCTCTGATCATAGTCAGACCAACATTGCTACGACCCGTATTCGCACCGACAC | -2.25
* ACATTTGTTGATACAACCATAAAATGATAATTACACCCATAAATTGATAATTATCACACCCATAAATTGATATTGCCTCTGATCATAGTCTGTGATTGTTATCACATTTCAGACCAAGCACCGACAC | -0.0662
* ACATTTGTTGATACAACCATAAAATGATAATTACACCCATAAATTGATAATTATCACACCCATAAATTGATATTGCCTCTGATAGTACTGCGCGCCTGAATTCATCGTTAAATCGTCGCACCGACAC | 0.0579
* ACATTTGTTGATACAACCATAAAATGAATATTACACCCATAAATTGATAATTATCACACCCATAAATTGATATTGCCTCTGATCATAGTCAGACCAACATTGCTACGACCCGTATTCGCACCGACAC | -0.772
* ACATTTGTTGATACAACCATAAAATGATCATTACACCCATCAATTGATAATTATCCCACCCCATTTAACTATAACGCTCTGATCATAGTCAGACCAACATTGCTACGACCCGTATTCGCACCGACAC | -2.65
* ACATTTGTTGATACAACCATAAAATGATAATTACACCCATAAATTGATCCTTATCACACCCATAAATTGATATTGCCTCTGATCATAGTCAGACCAACATTGCTACGACCCGTATTCGCACCGACAC | -0.973
